// provenance: patent US20130136743A1

Target: T1, AMHRII receptor expressed on cells (cov434-AMHRII, Asc 1, META 2815) (human, UniProt Q16671 18-573)
T1 sequence (looked up): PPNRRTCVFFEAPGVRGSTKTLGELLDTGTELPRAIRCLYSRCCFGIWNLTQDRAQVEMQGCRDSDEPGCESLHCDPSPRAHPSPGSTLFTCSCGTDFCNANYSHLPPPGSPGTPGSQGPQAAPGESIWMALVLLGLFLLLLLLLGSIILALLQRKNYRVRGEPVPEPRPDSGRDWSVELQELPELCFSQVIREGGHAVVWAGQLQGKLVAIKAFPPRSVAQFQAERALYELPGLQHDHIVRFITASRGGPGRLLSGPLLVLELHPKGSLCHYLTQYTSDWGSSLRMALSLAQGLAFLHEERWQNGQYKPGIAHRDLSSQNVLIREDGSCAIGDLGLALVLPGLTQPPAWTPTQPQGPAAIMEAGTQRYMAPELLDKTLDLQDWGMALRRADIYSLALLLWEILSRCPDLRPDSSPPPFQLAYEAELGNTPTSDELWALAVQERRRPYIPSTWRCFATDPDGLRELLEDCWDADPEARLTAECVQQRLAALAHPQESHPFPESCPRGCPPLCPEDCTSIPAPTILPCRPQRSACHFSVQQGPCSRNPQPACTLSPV
Test: cell-based or functional assay
RECORDED_ENDPOINT: % of lysis of ASC1 cells (ADCC with NK cells, LDH release) at 5000 ng/ml antibody

{"columns": ["BINDER", "REPORTED_VALUE"],
 "data": [
  ["mutated humanized 12G4 antibody 6B-78 produced in YB2/0 (antibody, human IgG1, kappa, V domains shown, Chains without leader; Mutation VL-E184K; also called 6B_78 YB2/0; R901 6B78) VH: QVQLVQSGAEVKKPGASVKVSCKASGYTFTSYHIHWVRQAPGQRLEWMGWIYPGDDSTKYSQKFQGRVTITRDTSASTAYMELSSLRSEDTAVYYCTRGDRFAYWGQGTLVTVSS VL: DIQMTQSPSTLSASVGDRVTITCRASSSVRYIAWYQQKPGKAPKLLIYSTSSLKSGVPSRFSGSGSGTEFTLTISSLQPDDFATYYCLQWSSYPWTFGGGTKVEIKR", "53%"],
  ["mutated humanized 12G4 antibody 3C-23 produced in YB2/0 (antibody, human IgG1, kappa, V domains shown, Chains without leader; Mutations VH-Q3R, VL-I177T/S179P; also called 3C_23 YB2/0; R901 3C23) VH: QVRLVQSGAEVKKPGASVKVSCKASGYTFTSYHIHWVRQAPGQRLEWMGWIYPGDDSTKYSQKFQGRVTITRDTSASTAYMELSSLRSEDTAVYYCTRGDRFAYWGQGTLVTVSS VL: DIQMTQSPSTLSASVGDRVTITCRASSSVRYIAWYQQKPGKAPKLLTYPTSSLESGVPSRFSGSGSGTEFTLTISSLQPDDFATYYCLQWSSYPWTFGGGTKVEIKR", "63%"],
  ["mutated humanized 12G4 antibody 3C-23K produced in YB2/0 (antibody, human IgG1, kappa, V domains shown, Chains without leader; also called 3C_23K YB2/0; 3C-23K-YB2/0) VH: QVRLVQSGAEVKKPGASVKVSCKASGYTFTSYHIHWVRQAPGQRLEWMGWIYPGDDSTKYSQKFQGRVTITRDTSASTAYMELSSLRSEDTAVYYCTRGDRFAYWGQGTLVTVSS VL: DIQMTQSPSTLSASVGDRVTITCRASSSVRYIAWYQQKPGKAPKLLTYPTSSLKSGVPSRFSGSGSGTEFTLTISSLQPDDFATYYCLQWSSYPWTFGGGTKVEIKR", "75%"],
  ["unmutated humanized 12G4 monoclonal antibody (antibody, human IgG1, kappa, V domains shown, Variable regions without leader joined to the constant regions; also called huLFB112; 632 07 107 Anti AMHRII hum 1st) VH: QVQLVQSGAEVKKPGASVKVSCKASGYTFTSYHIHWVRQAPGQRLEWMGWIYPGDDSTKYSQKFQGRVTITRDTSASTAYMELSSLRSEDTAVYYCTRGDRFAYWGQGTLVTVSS VL: DIQMTQSPSTLSASVGDRVTITCRASSSVRYIAWYQQKPGKAPKLLIYSTSSLESGVPSRFSGSGSGTEFTLTISSLQPDDFATYYCLQWSSYPWTFGGGTKVEIKR", "50%"]
]}
